Entries and their IC50 (neutralization)
system name: HIV-1 Env of isolate MGRM-D-020 (subtype D) (HIV-1)
assay text: cell-based or functional assay
observation type: IC50 (neutralization)

binder: PGT-135 (antibody, V domains shown) VH: QLQMQESGPGLVKPSETLSLSCTVSGDSIRGGEWGDKDYHWGWVRHSAGKGLEWIGSIHWRGTTHYKESLRRRVSMSIDTSRNWFSLRLASVTAADTAVYFCARHRHHDVFMLVPIAGWFDVWGPGVQVTVSS VL: EIVMTQSPDTLSVSPGETVTLSCRASQNINKNLAWYQYKPGQSPRLVIFETYSKIAAFPARFVASGSGTEFTLTINNMQSEDVAVYYCQQYEEWPRTFGQGTKVDIK
result: > 50 µg/mL
//
binder: PGT-137 (antibody, V domains shown) VH: EVHLEESGPGLVRPSETLSLTCTASGGSIRGGEWGDSDYHWGWVRHSPEKGLEWIGSIHWRGTTHYNAPFRGRGRLSIDLSRNQFSLRLTSVTAEDTAVYYCVKHKYHDIVMVVPIAGWFDPWGQGLQVTVSS VL: EIMMTQSPAILSVSPGDRATLSCRASQSVKNNLAWYQKRPGQAPRLLIFDTSSRASGIPARFSGGGSGTEFTLTVNSMQSEDFATYYCQQYEEWPRTFGQGTKVEIK
result: > 50 µg/mL
